Experiment: hepatitis C replication reporter changes, two-sided – Huh7 cells, luciferase reporter, HCV replication inhibitor project, primary screen (AID 1109);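 also: huh7 hepatoma cells harbouring a luciferase neomycin HCV replicon reporter; luciferase luminescence as measure of HCV replicon replication; test concentration not given here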
Conditions: Huh7 HCV replicon luciferase reporter, 48 h; higher = more signal
Give measured z-score for each item. Keep answers brief.
Output spec: single numeric token, no unit.

Q: Look up z-score: CCCCCN1CC=CC23O[C@@H]4/C=C\CCC(C)OC(=O)C4[C@H]2C(=O)N(C(CO)C(C)C)[C@@H]3C1=O (stereo partly specified)
Ans: -1.64

Q: z-score lookup needed for COC(=O)C1=CC(CCCO)=CC(c2ccc(CN3CCCC3)cc2)N(Cc2cccc(OC(F)(F)F)c2)C=C1C(=O)OC (stereo unspecified) , thanks.
Ans: -1.18

Q: Need z-score of "O=C1O[C@@H](c2ccccc2)[C@@H](c2ccccc2)N2[C@@H](c3ccc(OCCO)cc3)[C@]3(C(=O)Nc4ccc(C#CC5=CCCCC5)cc43)[C@@H](C(=O)NC[C@H](O)c3ccccc3)[C@H]12" , thanks.
Ans: -2.54

Q: For the compound "CC(C)C[C@@H]1NC(=O)[C@@H]2C[C@H](C(=O)NCCCCCCN)[C@H](c3cccc(OCCO)c3)N2C1=O" , what z-score is on record?
Ans: -0.125

Q: Which z-score value belongs to CC(c1ccccc1)C(O)C1C=CC2C(=O)N(C)C(=O)C2N1Nc1ccccc1 (stereo unspecified) ?
Ans: -0.684

Q: So what's the measured z-score for this one? CC(C)N1CC=CC23O[C@@H]4C=CCCOC(=O)C4[C@H]2C(=O)N(CCCO)[C@@H]3C1=O (stereo partly specified)
Ans: -1.15

Q: Please report the recorded z-score for "CC(C)[Si](C#CCCCC#N)(O[C@H](c1ccccc1)c1cn(Cc2ccccc2)nn1)C(C)C" .
Ans: -0.147

Q: Request the reported z-score associated with CN1C(=O)C2C=CC(C(O)c3cccn3C)N(Nc3ccc([N+](=O)[O-])cc3[N+](=O)[O-])C2C1=O (stereo unspecified)
Ans: -0.0091

Q: Returns the measured z-score for the input compound. Input: "O=C(NCCN1CCOCC1)[C@@H]1c2ccccc2C(=O)N(Cc2ccccc2Cl)[C@H]1c1ccc(CO)cc1"
Ans: -0.786

Q: What does the data say about its z-score? Entry: "CCOC(=O)C[C@H]1[C@H](OC(=O)Cc2ccc3c(c2)OCO3)[C@@H](NC(=O)c2ccc3ccccc3n2)c2cc(OCCCO)ccc2N1C(=O)c1ccc2ccccc2n1"
Ans: -1.63

Q: Using the record for "C=C(/C(=C/C[C@H](OC(C)=O)c1ccc(CO)o1)c1cnc2ccccc2c1)C(C)C" , report its z-score.
Ans: -2.23

Q: What z-score value was documented for this compound, "COc1ccc([Si](C)(C)[C@H]2[C@H](CC(=O)N3Cc4ccccc4C[C@H]3CO)O[C@@]3(C(=O)N(Cc4ccc(N5CCOC5=O)cc4)c4ccccc43)[C@@H]2C)cc1" ?
Ans: -4.15

Q: Given the compound CN1C2C=C(CCCO)C(C3C(=O)N(C(N)=O)C(=O)C32)C1C1CC1 (stereo unspecified) , what is its reported z-score?
Ans: -0.225

Q: What z-score value was documented for this compound, "C=C(COC)C(=O)CC[C@@H](OC(C)=O)c1cccc(OCCO)c1" ?
Ans: -2.41

Q: What value of z-score has been recorded for this entry: COc1cc(C(O)C2C=CC3C(=O)N(C)C(=O)C3N2Nc2ccccc2)cc(OC)c1OC (stereo unspecified)
Ans: 0.461

Q: # query: z-score of entry "CC(C)=C1C(=O)C(c2ccccc2)=C2CN3C(=O)N(CCc4ccccc4)C(=O)[C@]3(Cc3ccc(C(F)(F)F)cc3)[C@H]21"
Ans: -0.508

Q: Which z-score reading was recorded for the compound CCCCC[C@H]1OC[C@@]23C=C(Br)[C@@H](CC12)[C@@]1(CO1)C3=O (stereo partly specified) ?
Ans: -2.3

Q: Endpoint output: z-score of "C=C[C@@H](OC)[C@H](OC(=O)Nc1ccc(OC)cc1)c1ccc(O)c(F)c1" . Value?
Ans: 0.859

Q: Return reported z-score; argument: "C=C(/C(=C/C[C@H](OC(=O)c1ccncc1)c1ccc(CO)o1)c1cnc2ccccc2c1)C(C)C"
Ans: -2.1

Q: I'd like to know its z-score. The compound in question is "CC(C)NC(=O)[C@@]1(C)c2ccccc2C(=O)N(Cc2ccc(OC(F)(F)F)cc2)[C@H]1c1ccc(CO)cc1"
Ans: -0.706

Q: Request the reported z-score associated with COC(=O)C1(CC(C)C)C=C2C(=C(c3ccccc3)C(=O)C2C)CN1 (stereo unspecified)
Ans: -1.33

Q: Using the record for CC(=O)N1CC2(CC2)CC1c1ccccc1 (stereo unspecified) , report its z-score.
Ans: 0.677

Q: # lookup: z-score of "CCOC(=O)C=Cc1cccc(C)c1O"
Ans: 0.717

Q: Query: z-score; subject: "C=CC[C@@]1(C(=O)NCCCOC)N=C(c2ccc(OCCCO)cc2)O[C@@H]1c1ccccc1"
Ans: -0.449

Q: z-score lookup needed for "O=C1[C@H]2C=C(I)[C@H](C[C@@H]2OCCOCCO)[C@@]12CO2" , thanks.
Ans: -2.21

Q: Fill blank: measured z-score of the compound "O=C1N(Cc2ccccc2)c2ccccc2C[C@]12N=C(c1ccc(OCCCO)cc1)O[C@@H]2c1ccccc1" is ____.
Ans: -3.02

Q: Any idea what its z-score is? The compound is "CC(C)(C)OC(=O)COc1cccc(C(=O)CCN2CCOCC2)c1"
Ans: -1.7

Q: For the compound "COCCOC(=O)N1C(=O)[C@@]2(c3cc(C#CC4=CCCCC4)ccc31)[C@H](C(=O)Nc1nc3ccccc3s1)[C@H]1C(=O)O[C@H](c3ccccc3)[C@H](c3ccccc3)N1[C@@H]2c1ccc(O)cc1" , what z-score is on record?
Ans: -1.1

Q: For "COC(=O)[C@@]1(Cc2ccc(OC)cc2)[C@H]2c3cc(C(=O)N4CCCC4)n(CCc4c[nH]c5ccc(O)cc45)c3C[C@H]2CN1C(=O)c1ccccc1" , what is its reported z-score?
Ans: -1.51

Q: Reported z-score for "CCOC(=O)C[C@H]1[C@H](OC(=O)c2ccc(C(=O)c3ccccc3)cc2)[C@@H](NC(=O)C2CCCCC2)c2cc(OCCCO)ccc2N1C(=O)c1ccc2ccccc2n1" : what is it?
Ans: 0.0574

Q: Dear colleague, I am looking for the recorded z-score of the following compound: "COCCOC(=O)N1C(=O)[C@@]2(c3cc(C#CCCO)ccc31)[C@H](c1ccc(OCCO)cc1)N1[C@H](c3ccccc3)[C@H](c3ccccc3)OC(=O)[C@H]1[C@@H]2C(=O)Nc1nc2ccccc2s1"
Ans: -1.13
